tested on: NCI-H460 tumor-bearing mice (lung cancer); experiment: Biodistribution: lutetium accumulation in tumor, plasma and healthy tissues by ICP-MS; format: in vivo; settings: second table; kidney; 24 h
Collected Kidney uptake, % ID/g 24 h values appear next to each entry.
Write down the numeric answer in % ID/g and omit the unit.

Here are 3 compounds together with their reported answers.
>>> reported_value("CCNC(=O)c1nnc(-c2cc(C(C)C)c(O)cc2O)n1-c1ccc(C2CCN(C(=O)CCOCCOCCOCCOCCOCCOCCOCCOCCOCCOCCOCCOCCNC(=O)CN3CCN4CCN5CCN(CC3)CC(=O)[O][Lu]([O]C(=O)C4)[O]C(=O)C5)CC2)cc1")
1.62
>>> reported_value("CCNC(=O)c1nnc(-c2cc(C(C)C)c(O)cc2O)n1-c1ccc(C2CN(C(=O)CCOCCOCCOCCOCCNC(=O)CN3CCN4CCN5CCN(CC3)CC(=O)[O][Lu]([O]C(=O)C4)[O]C(=O)C5)C2)cc1")
1.12
>>> reported_value("CCNC(=O)c1nnc(-c2cc(C(C)C)c(O)cc2O)n1-c1ccc(OC2CCN(C(=O)CCNC(=O)[C@@H](CCC(=O)N3CCC(Oc4ccc(-n5c(C(=O)NCC)nnc5-c5cc(C(C)C)c(O)cc5O)cc4)CC3)NC(=O)CCOCCOCCOCCOCCNC(=O)CN3CCN4CCN5CCN(CC3)CC(=O)[O][Lu]([O]C(=O)C4)[O]C(=O)C5)CC2)cc1")
11.87

Now consider a different compound.
## Task If you can, please state the reported Kidney uptake, % ID/g 24 h value of `CC(C)c1cc(-c2nnc(O)n2-c2ccc(OC3CCN(C(=O)CCOCCOCCOCCOCCNC(=O)CN4CCN5CCN6CCN(CC4)CC(=O)[O][Lu]([O]C(=O)C5)[O]C(=O)C6)CC3)cc2)c(O)cc1O` .
## Result 0.14
